Test system: Escherichia coli
experimental protocol: Antimicrobial activity against Escherichia coli TOP10 harboring pQep plasmid carrying qepA2 gene by disk diffusion method
Format: functional
What MIC was measured for each of the following?
Numbers only, in µg/mL.

Exercise: Would you kindly share the measured MIC for "NC[C@H]1O[C@H](O[C@H]2[C@H](O)[C@@H](O[C@H]3O[C@H](CO)[C@@H](O)[C@H](N)[C@H]3O)[C@H](N)C[C@@H]2N)[C@H](N)C[C@@H]1O" ?
Key: 0.5

Then there is this compound:
Exercise: Would you kindly share the measured MIC for "CO[C@H]1/C=C/O[C@@]2(C)Oc3c(C)c(O)c4c(O)c(c(/C=N/N5CCN(C)CC5)c(O)c4c3C2=O)NC(=O)/C(C)=C\C=C\[C@H](C)[C@H](O)[C@@H](C)[C@@H](O)[C@@H](C)[C@H](OC(C)=O)[C@@H]1C" ?
Key: 16

* * *

Test system: Escherichia coli
experimental protocol: Antimicrobial activity against Escherichia coli TOP10 harboring pQep plasmid carrying qepA2 gene by disk diffusion method
Format: functional
result type: MIC (µg/mL)
One number for each entry, in µg/mL.

Exercise: Would you kindly share the measured MIC for "CO/N=C(\C(=O)N[C@@H]1C(=O)N2C(C(=O)[O-])=C(C[N+]3(C)CCCC3)CS[C@H]12)c1csc(N)n1" ?
Key: 0.12

Exercise: Would you kindly share the measured MIC for "CCn1cc(C(=O)O)c(=O)c2cc(F)c(N3CCNCC3)cc21" ?
Key: 0.5

Exercise: Would you kindly share the measured MIC for "CC(C)(O/N=C(\C(=O)N[C@@H]1C(=O)N2C(C(=O)[O-])=C(C[n+]3ccccc3)CS[C@H]12)c1csc(N)n1)C(=O)O" ?
Key: 0.12

Exercise: Would you kindly share the measured MIC for "CC(=O)OCC1=C(C(=O)O)N2C(=O)[C@@H](NC(=O)Cc3cccs3)[C@H]2SC1" ?
Key: 8

Exercise: Would you kindly share the measured MIC for "CCn1cc(C(=O)O)c(=O)c2ccc(C)nc21" ?
Key: 1.5

Look up MIC for the entries below, preserving their order.
1. CO/N=C(\C(=O)N[C@@H]1C(=O)N2C(C(=O)O)=C(COC(C)=O)CS[C@H]12)c1csc(N)n1
2. CCN[C@@H]1C[C@H](N)[C@@H](O[C@H]2OC(CN)=CC[C@H]2N)[C@H](O)[C@H]1O[C@H]1OC[C@](C)(O)[C@H](NC)[C@H]1O
3. CCN1CCN(c2cc3c(cc2F)c(=O)c(C(=O)O)cn3C2CC2)CC1
4. COc1c(N2C[C@@H]3CCCN[C@@H]3C2)c(F)cc2c(=O)c(C(=O)O)cn(C3CC3)c12
5. COc1c(N2CCNC(C)C2)c(F)cc2c(=O)c(C(=O)O)cn(C3CC3)c12 (stereo not given)
6. NCC[C@H](O)C(=O)N[C@@H]1C[C@H](N)[C@@H](O[C@H]2O[C@H](CN)[C@@H](O)[C@H](O)[C@H]2O)[C@H](O)[C@H]1O[C@H]1O[C@H](CO)[C@@H](O)[C@H](N)[C@H]1O

Key:
0.06
0.25
0.008
0.01
0.01
1

* * *

What MIC was measured for each of the following?
Tested on: Escherichia coli
experimental protocol: Antimicrobial activity against Escherichia coli TOP10 harboring pQep plasmid carrying qepA2 gene by disk diffusion method
Format: functional

Completed entries (count: 2):
Exercise: Would you kindly share the measured MIC for "CC1(C)S[C@@H]2[C@H](NC(=O)[C@H](N)c3ccc(O)cc3)C(=O)N2[C@H]1C(=O)O" ?
Key: > 256 µg/mL

Exercise: Would you kindly share the measured MIC for "CCN1CCN(C(=O)N[C@@H](C(=O)N[C@@H]2C(=O)N3[C@@H]2SC(C)(C)[C@@H]3C(=O)O)c2ccccc2)C(=O)C1=O" ?
Key: > 256 µg/mL

Then there is this compound:
Exercise: Would you kindly share the measured MIC for "O=C(N[C@H](CO)[C@H](O)c1ccc([N+](=O)[O-])cc1)C(Cl)Cl" ?
Key: > 256 µg/mL

// data source = ChEMBL document CHEMBL1275501
